Provenance of the data: patent US6972319B1

TARGET_ENTITY: PACAP-R3 (Homo sapiens)
Sequence (P41587 24-438): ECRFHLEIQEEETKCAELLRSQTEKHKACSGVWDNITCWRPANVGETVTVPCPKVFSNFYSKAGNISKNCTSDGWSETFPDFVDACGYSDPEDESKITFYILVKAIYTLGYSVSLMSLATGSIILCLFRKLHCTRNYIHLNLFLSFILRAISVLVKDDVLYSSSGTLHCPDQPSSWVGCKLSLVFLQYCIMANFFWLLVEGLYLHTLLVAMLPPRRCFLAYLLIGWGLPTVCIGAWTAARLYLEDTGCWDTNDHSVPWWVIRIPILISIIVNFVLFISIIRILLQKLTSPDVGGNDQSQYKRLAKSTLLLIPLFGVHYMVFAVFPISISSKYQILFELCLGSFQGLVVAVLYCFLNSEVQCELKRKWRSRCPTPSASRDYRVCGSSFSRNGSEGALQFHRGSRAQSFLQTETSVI
MEASUREMENT_PROTOCOL: Cyclic AMP SPA on CHO cells expressing PACAP R3
Format: cell-based
Design: expressed in transfected cells; host or cells: CHO cells (Geneticin selection)
MEASUREMENT_CONTEXT: ratio of EC50 at R2 versus EC50 at R3
No end group written: not given here.
REPORTED_PROPERTY: R3 Selectivity

Consider the substance HSDAVFTDNYTRLRKQMAAHKYLNSIKNKRY [Peptide R3P73] and give its recorded R3 Selectivity.
170

Determine from records and report R3 Selectivity for H-HSDAVFTDNYTRLRKQMAGKKYLNSIQNRI-OH [rR3P185]
40

Return value of R3 Selectivity for input HSDAVFTDNYTRLRKQMAAKKYLNSIKNKT [Peptide R3P168] , no commentary.
300

* * *

TARGET_ENTITY: PACAP-R3 (Homo sapiens)
MEASUREMENT_PROTOCOL: Cyclic AMP SPA on CHO cells expressing PACAP R3
Assay type: cell-based
Design: expressed in transfected cells; host or cells: CHO cells (Geneticin selection)
MEASUREMENT_CONTEXT: ratio of EC50 at R2 versus EC50 at R3
No end group written: not given here.
REPORTED_PROPERTY: R3 Selectivity
Number, no unit, nothing else.

Give me measured R3 Selectivity, please, for this substance: HSDGIFTDSYSRYRKQKAVKKYLAAVL-NH2 [PAC17]
1.6

Tell me its R3 Selectivity given H-HSDAVFTDNYTRLRKQMAKKKYLNSIKNKR [Peptide R3P104] as the entry.
500

Tell me R3 Selectivity reported for HSDKIFTDSYSRYRKQMAVKKYLAAVL-NH2 [PAC4]
6

Please look at this substance and report its R3 Selectivity: HSDAVFTDNYTRLRKQVAAKKYLQSIKNKRY [Peptide R3P66]
250

Indicate the recorded R3 Selectivity value for this substance: HSDAVFTDNYTRLRKQMAVKKYLNSIKKK [Peptide R3P58]
170

Tell me R3 Selectivity reported for HSDAVFTENYTRLRKQMAVKKYLNSLKK-NH2 [Peptide R3P7]
0.5

Supply recorded R3 Selectivity for HSDAVFTDNYTRLRKQMAQKKYLNSIKNKR [Peptide R3P109] here.
100

Kindly indicate its recorded R3 Selectivity. Item: HSDAVFTDNYTRLRKQVAAKKYLNSIKNKRY [Peptide R3P68]
260
